Origin of values: ChEMBL document CHEMBL1201862

# Tested on: OVCAR-5
# PROTOCOL: NCI tumour cell line growth inhibition, 48 h
The source made the active and inactive calls. Rule as the data show it: active = GI50 up to about 1.1 µM and inactive = higher.
Pick one and only one: active, inactive

Worked examples follow.
{"columns": ["COMPOUND", "GROUP"],
 "data": [
  ["CCOC(=O)N[C@H]1CCc2cc(O)c(OC)c(OC)c2-c2ccc(SC)c(=O)cc21", "active"],
  ["COc1nc2ccc(Cl)c(C(O)c3ccccc3)c2nc1OC (configuration not stated)", "inactive"],
  ["NS(=O)(=O)c1ccc(NC(=O)N/N=C/c2ccccc2[N+](=O)[O-])cc1", "inactive"],
  ["CCOC(=O)C1=C(N)N2C(=N[C@H]3CCCC[C@@H]32)N=C1", "inactive"],
  ["CCN(CC)CCCNc1nncc2c(C)c3[nH]c4ccc(OC)cc4c3cc12", "inactive"],
  ["CN(C)c1ccc(/C=C/c2ccnc3ccccc23)cc1", "inactive"]
]}

Exercise: Returns: the outcome recorded for O=C(c1ccccc1)c1ccc2c(c1)N=C(c1ccc(Cl)c(Cl)c1)CC(c1ccc3ccccc3c1)N2 (configuration not stated) in this assay.
Key: inactive
